# target under test: TDP-43 RRM1 (mouse, UniProt Q921F2 101-191)
# experiment summary: filter binding
endpoint label: Kd (nM)
Report only the number, with the unit nM understood.

Enquiry: In one line, give reported Kd of the entry UGUGUGUGUGUG (ssRNA) [(UG)6] .
Return: 65.2

Data provenance is paper PMC2665213.
